- measuredOn: ETS1 (UniProt P14921)
- Sequence: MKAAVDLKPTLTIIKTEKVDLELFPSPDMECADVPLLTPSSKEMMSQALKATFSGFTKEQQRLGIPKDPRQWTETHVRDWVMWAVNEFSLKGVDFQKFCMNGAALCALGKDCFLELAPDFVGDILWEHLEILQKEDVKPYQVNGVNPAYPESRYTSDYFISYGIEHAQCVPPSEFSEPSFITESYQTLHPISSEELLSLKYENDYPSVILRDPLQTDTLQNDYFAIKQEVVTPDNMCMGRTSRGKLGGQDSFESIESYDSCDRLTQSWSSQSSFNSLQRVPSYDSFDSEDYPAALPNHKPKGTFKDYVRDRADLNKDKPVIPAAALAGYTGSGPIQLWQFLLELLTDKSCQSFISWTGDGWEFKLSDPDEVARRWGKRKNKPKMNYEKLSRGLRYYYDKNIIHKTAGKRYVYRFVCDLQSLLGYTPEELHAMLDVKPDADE
- protocol: ETS1 binding intensity (PBM fluorescence) (arbitrary fluorescence units); higher = stronger binding
- measurementContext: ETS1 concentration 10 nM
Whole data set: some 2,700 sequences, median “arbitrary fluorescence units” near 4,100, cut for the highest 2% near 54,000. The entries come from a sample that favours the highest values as a whole.
observedProperty: ETS1 binding intensity

residues: GGACCGGAAGTGCCTCCTGCGGAGGCAGGAAGTCCC
observedProperty: ETS1 binding intensity
result: 58700
--
residues: GCCCCACTTCCCTCCCGCGGTCACACTTCCGGCGGC
observedProperty: ETS1 binding intensity
result: 12500
--
residues: CGTCCCACATCCGCCGACACGCCCCTTCCGGCCTAA
observedProperty: ETS1 binding intensity
result: 20000
--
residues: GACGGACACCCGTTTCCGCTTCCGGGTCACGCTTCT
observedProperty: ETS1 binding intensity
result: 20900
--
residues: AGCAGGAAGGACCTCAGTCCTCCAGTGCGGATGCTG
observedProperty: ETS1 binding intensity
result: 207
--
residues: GCCACCGCCCCTTCCGGGTCCGGAACGGCTCCAGCT
observedProperty: ETS1 binding intensity
result: 7050

---

- measuredOn: ETS1 (UniProt P14921)
- Sequence: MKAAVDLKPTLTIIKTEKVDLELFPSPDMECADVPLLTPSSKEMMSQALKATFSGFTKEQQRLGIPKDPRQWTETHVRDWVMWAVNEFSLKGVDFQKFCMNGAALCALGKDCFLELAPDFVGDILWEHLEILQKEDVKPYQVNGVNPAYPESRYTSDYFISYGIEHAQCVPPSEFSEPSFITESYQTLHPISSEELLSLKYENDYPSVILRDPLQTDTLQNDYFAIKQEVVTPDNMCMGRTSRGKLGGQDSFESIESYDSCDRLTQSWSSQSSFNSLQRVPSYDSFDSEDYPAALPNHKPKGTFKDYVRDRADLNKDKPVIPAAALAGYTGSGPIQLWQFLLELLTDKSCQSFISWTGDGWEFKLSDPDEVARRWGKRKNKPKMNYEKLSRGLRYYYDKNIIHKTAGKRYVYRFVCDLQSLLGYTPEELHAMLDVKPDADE
- protocol: ETS1 binding intensity (PBM fluorescence) (arbitrary fluorescence units); higher = stronger binding
- measurementContext: ETS1 concentration 10 nM
Over roughly 2,700 sequences, “arbitrary fluorescence units” has its median near 4,100; the highest 2% begin near 54,000. The full list was thinned out, with the highest values kept by preference.
Decide using ETS1 binding intensity: a value greater than or equal to 8000 is fulfilled, a smaller one is not fulfilled.

residues: GAGCGGAAGTGGAAAAGACTAACTTCCGGCCTCGGG
classification: fulfilled

residues: TTCACCCCACCACTTCCTCATCCTGATCTCAGCTCA
classification: not fulfilled

residues: AGTCACACAGGAAATGGAGCCAGGGGATGTGCTCAA
classification: fulfilled

residues: GAGCACGACTTCCGGCCTGAAAAGGAAGTCTCCTCC
classification: fulfilled

residues: CCACTTCCGGCATGCGCAGGGACGCACCTTCCGGCT
classification: fulfilled

residues: CCTGGCCGGAAACTGAGCCGTTCACTTCCGCCACCA
classification: fulfilled

residues: CTGATAGGGGAAGTGGGAGTTGACAGGATGGTTTAA
classification: not fulfilled

residues: AACCAACAACTTACTTCCTTCCGGGTTTGGTGCAGA
classification: not fulfilled

residues: ACTGCCTTCCTGGCCTGGTGGTGAGAGGAAGTCGGG
classification: not fulfilled

residues: GAGAACTTCCGGCTGCAGTACAACCATTTCCGGGCT
classification: fulfilled

residues: GACCGCAGGAAGGGACGCGGCCGCACTTCCGGCGAC
classification: fulfilled

---

- measuredOn: ETS1 (UniProt P14921)
- Sequence: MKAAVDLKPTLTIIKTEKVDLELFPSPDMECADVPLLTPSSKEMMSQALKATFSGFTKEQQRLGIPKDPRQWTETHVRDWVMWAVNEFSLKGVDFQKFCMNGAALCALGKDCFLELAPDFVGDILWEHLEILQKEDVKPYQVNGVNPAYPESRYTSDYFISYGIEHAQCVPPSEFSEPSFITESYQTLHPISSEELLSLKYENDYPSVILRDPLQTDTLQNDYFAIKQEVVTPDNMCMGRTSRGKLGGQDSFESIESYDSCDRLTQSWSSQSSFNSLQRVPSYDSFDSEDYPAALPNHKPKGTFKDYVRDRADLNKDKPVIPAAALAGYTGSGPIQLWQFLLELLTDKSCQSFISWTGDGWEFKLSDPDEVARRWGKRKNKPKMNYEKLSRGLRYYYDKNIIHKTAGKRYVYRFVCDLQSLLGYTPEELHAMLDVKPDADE
- protocol: ETS1 binding intensity (PBM fluorescence) (arbitrary fluorescence units); higher = stronger binding
- measurementContext: ETS1 concentration 10 nM
Over roughly 2,700 sequences, “arbitrary fluorescence units” has its median near 4,100; the highest 2% begin near 54,000. The list comes from a sample in which the highest values are over-represented; it also holds close analogues and randomly drawn sequences.
This listing pairs sequences with measured ETS1 binding intensity.
observedProperty: ETS1 binding intensity

residues: GAGGCGGGACTTCCTACAGCACTTCCGGCCAGAGCC
result: 26500
//
residues: CACCACTTCCTGTTTCTGAGTCATCAGGAAGGTAAT
result: 58900
//
residues: TGGTAACAGGCATTTCCGGTTTCCGGCCGGCTCCCT
result: 61800
//
residues: GGGAGGCGGAAAGGGGCGGGACCACTTCCGGCCTAG
result: 22100
//
residues: CTTAGTTTCCTCTGGCGATGCTAAAGAGGAAGTTAC
result: 2440
//
residues: GTCACTTCCGGCAGCCGGAGGCAGCAGAGGAAGCCG
result: 71500
//
residues: TTATTCTGTTTCCGGCAGTTTTACTTCCGTTTGTTT
result: 15900
//
residues: CTGGGGGTCCGGATGCTTTGCGTTTCCCAGCAGTTG
result: 1230
//
residues: GGAAAGACGGCAGGAAATGGGGAAGTGGGAGGGAGA
result: 6220
//
residues: TGAAGGCTTCCGCCAAGGTGAGGGGCTTCCTCTGGG
result: 9460
//
residues: GCACCCGGAAGCCGCTTGCGGGCTCCCGGAAGCGGC
result: 8720
//
residues: CATTTACCACTTCCTGAGGTCATTTCCTGTTTTCTT
result: 25800
//
residues: CTTCCACATCTTCCTGCAGAGCATCCTGTCTGTGCA
result: 4230
//
residues: CAGCACGACTTCCTGGAGCGGGCCGGAAGTGACAAC
result: 21000
//
residues: TGCTAAACTTCCCTGGGCCCCATCAGGAAATGTGAA
result: 185
//
residues: GCAACTTCCGCCCTGAGAAGGGTGGGGCTTCCGTCT
result: 63000
//
residues: CGCCCCTGGGGCTTCCGCGGCGGAAGCCTAGCGTCC
result: 824
//
residues: GGTTGGTGATTGGCAGGATCCTGGTATCCGCTAACA
result: 278
//
residues: ATGCAGAAAGTGGGAAGTGAGGAAATGAGGGCAGCG
result: 232
//
residues: GAGAGGCAGGAAGAGAGCAGAGCCGGAAGCACAAGG
result: 2630
//
residues: CGCCGCATCCGGTAGCGAGAGTTCAACTTCCTGACT
result: 56600
//
residues: ACCGCCCGGAAGTGACGCGCCCGCGCATCCGGCCAC
result: 19800
//
residues: AGAATGAGCTGCAGGAAGGCGGAAGCACTAGCGTGC
result: 421
//
residues: CTCTGTGACTTCCTGGAGACTCACTTCCTAGATGAG
result: 11300
//
residues: TGATTTCCGCTTTCTCCCCAGTGATTGCTTCCTTCA
result: 68300
//
residues: AGCCCAAGCGCGGAAGAGGGCGGAAGGAGAACCCCT
result: 240
//
residues: TGCGGGGCGGAAGCCGGGGCGTGACTTCCGGCGCCG
result: 11600
//
residues: CAATTGAGGAAACAGGACCAAAGACAGGAAATGGCT
result: 2860
//
residues: AGACTTCCGTTCTGGCTCTCACTCTAGTTTCCTGGT
result: 67500
//
residues: CGGACCGGAAGTTGGGGTGACGCAATTTCCGGCGCG
result: 54200
//
residues: GCCTTCAATTTCCGTAGGGAACCTTCCTCCCAGTGA
result: 6860
//
residues: TCGGACCGGAAGGAGTTGTTGGCGCTTCCGGTGGCC
result: 15900
//
residues: TGAATGCTGTCATTTCCGCTTCCGCCTCCTTCTTTC
result: 26500
//
residues: ACCCGGAAGCGCTTCACCCAGCCTGAGCGGAAGAAC
result: 5640
//
residues: AGCCCCACCATTTCCTGTGACTTCCTGGAGCCTGGC
result: 25600
//
residues: TGAAACAGGAAGTCAGCTTCACAGCAGGAAGCAGAC
result: 16400
//
residues: CACGGTGATTTCCTGTAAACAACAGGAAATGTACAG
result: 22700
//
residues: TATTCAAAGCCCACTTCCTTCCTGTAGCATTCATTC
result: 6220
//
residues: ATCACCAGCCTTCCTGTGGGACCGGAAAGGCAGTAG
result: 2720
//
residues: GCGGCTTGGGCCTTCCGGCTTTCCGTCCGCCGCGGC
result: 7060
//
residues: TGGCGGAGGCGCCGGAAGTTTTCCGGCTTTCTGCTG
result: 4500
//
residues: GCGTTACTTCCGGCGCGCGGCGGGCGGAAGTCCGGG
result: 69700
//
residues: CTTCCCTGGTAACATCCGGCATCCTGGGGCTGCCAA
result: 18800
//
residues: CCTACAATTCCTGTTTTGGAGACCGCTTCCGGCAGC
result: 3700
//
residues: CGGCGGAAGGAGCGGGCGGCGTGAGCGCTTCCGCCG
result: 811
//
residues: CAAGCGATTCTTCCGCCTCAACTTCCTGAGTAGCTG
result: 5800
//
residues: CCCGGTAGCCGCCGGAAAACTTCCGCCGAGACCGGA
result: 4420
//
residues: GCGCCGGAAGCAGAGACGCGTTTCGGGAGGAAGGTG
result: 3580
//
residues: TGCAAAGCATCCTGGGTGCCAGGCTTCCTGGGGCTT
result: 1890
//
residues: CCATTCATTTCCTGCCTCCCCGAGTTCCGGCTGCGG
result: 35800
